# Tested on: EKVX
# assay_summary: NCI tumour cell line growth inhibition, 48 h
The source made the active and inactive calls. Rule as the data show it: active = GI50 up to about 1.1 µM and inactive = higher.
What GI50 was measured for each of the following?

These recorded examples may help you get a feel for the data.
CC(=O)OCC1OC(c2nnc(C)o2)=CC(OC(C)=O)C1OC(C)=O (centres undefined) :: > 100 µM (inactive)
NC(=S)NNC(=S)NC(=O)c1ccco1 :: > 10 µM (inactive)
COC(=O)N/N=C(\C)CC(=O)Nc1cccc([N+](=O)[O-])c1 :: > 100 µM (inactive)

The record that follows has no GI50 shown yet.
Ask: Check the records and state GI50 for "Clc1sc(Cl)c2c1[C@H](Br)C[C@@H]2Cl"
Reply: 35.9 µM (inactive)
